- Test system: Human primary T cells
- assay.remarks: IL-2 ELISA, Human Primary T Cell, Anti-CD3+CD28+ (Example 3)
- Format: cell-based
- assay.setup: Homo sapiens, T-cell, 24 h, anti-CD3+CD28 stimulation
metric: pIC50
In plain terms, pIC50 is the concentration in mol/L turned into minus its base-10 logarithm.

As a guide, the following entries are already answered.
- molecule: "CN1C(C)(C)CC(Nc2nc(Nc3ccc(F)c(C#N)c3)ncc2Cl)CC1(C)C"
  metric: "pIC50"
  quantitative.result: 6.55
- molecule: "CN1C(C)(C)CC(Nc2nc(Nc3cc(OCC(F)(F)F)cc(OCC(F)(F)F)c3)ncc2F)CC1(C)C"
  metric: "pIC50"
  quantitative.result: 6.51
- molecule: "CN1C(C)(C)CC(Nc2nc(Nc3nc4ccccc4s3)ncc2F)CC1(C)C"
  metric: "pIC50"
  quantitative.result: 5.79
- molecule: "CN1C(C)(C)CC(Nc2nc(Nc3nc(-c4cccnc4)cs3)ncc2F)CC1(C)C"
  metric: "pIC50"
  quantitative.result: 6.04
- molecule: "CCCN1C(=O)COc2cc(Nc3ncc(F)c(NC4CC(C)(C)N(C)C(C)(C)C4)n3)ccc21"
  metric: "pIC50"
  quantitative.result: 6.83

Given the molecule `CN1C(C)(C)CC(Nc2nc(Nc3cccc(-n4cnnn4)c3)ncc2F)CC1(C)C` , what is its reported pIC50?
7.17

Given the molecule CCN(CC)C1CCC(Nc2nc(Nc3ccc(N4CCN(S(C)(=O)=O)CC4)c(Cl)c3)ncc2F)CC1 (stereo not shown) , what is its reported pIC50?
5.15

Given the molecule `Cc1ccc(Nc2ncc(Cl)c(NC3CC(C)(C)N(C)C(C)(C)C3)n2)cc1C#N` , what is its reported pIC50?
6.92

Given the molecule `CCN1C(=O)C(C)(C)Oc2cc(Nc3ncc(F)c(NC4CC(C)(C)N(C)C(C)(C)C4)n3)ccc21` , what is its reported pIC50?
6.85

Given the molecule `CN1C(C)(C)CC(Nc2nc(Nc3ccc(N4CCOCC4)c(C#N)c3)ncc2F)CC1(C)C` , what is its reported pIC50?
6.76

Given the molecule `CCN1C(=O)C(C)(C)Oc2cc(Nc3ncc(Br)c(NC4CC(C)(C)N(C)C(C)(C)C4)n3)ccc21` , what is its reported pIC50?
7.10
